Test: gradient 5% acetonitrile 3 min, to 50% in 2 min, to 85% in 15 min, held 3 min, 100 µL/min
Details: column: Zorbax Extend-C18 2.1 x 50 mm; eluents: water / acetonitrile, 0.1% formic acid
metric: RP-LC retention time (s)

Observe how each entry below is paired with its result.
molecule	RP-LC retention time / s
Cc1ccccc1C(=O)Nc1nc(-c2ccc3c(c2)N(C)C(=O)CO3)c(C)s1	1050
COc1cccc(S(=O)(=O)N2CCC(c3noc(-c4cccc(C)c4)n3)CC2)c1	1180
CCN1C(=O)C(C)(C(=O)Nc2ccccc2)Oc2cccnc21 (stereo not given)	859
COC(=O)[C@H](Cc1ccc(C#Cc2ccccc2)cc1)NC(=O)C[C@H]1CCCN(C(=N)N)C1	772
CCOC(=O)c1nc(Nc2cc(Cl)c(OC)cc2OC)c2ccccc2n1	964

[A] COc1ccc(C(=O)N2CCN(c3ccc(=O)n(-c4ccc(C(C)C)cc4)n3)CC2)cc1OC
[B] Cn1cnnc1SCC(=O)N1CCCCCC1
I would appreciate it if you could say which entry, A or B , has the lower RP-LC retention time value. I would appreciate it if you answered with the label of your choice. B
